Reported values of Score_si2 for individual entries
System: CHIKV
Format: cell-based, chikungunya virus
assay-endpoint: Score_si2

substance: Hs_RXRA_4 (sense CTCATCGGCCTTGTAGTTGTA; chemistry not given here)
result-value: 1.74
//
substance: s28296 (sense CTTCCTCGGTGGAACACGA; chemistry not given here)
result-value: 1.22
//
substance: Hs_TADA3L_1 (sense CTGACCGAACTGGACACTAAA; chemistry not given here) [reference compound]
result-value: -1.72
//
substance: s29268 (GGATGCGAAAGACAGAGTA; chemistry not given here)
result-value: 1.55
//
substance: Hs_P4HB_5 (CAGGACGGTCATTGATTACAA; chemistry not given here)
result-value: 1.15
//
substance: s11745 (sense CACTCTCTGTAAGCATATA; chemistry not given here)
result-value: 1.42
//
substance: s13806 (sense TCATCACCGTGTCCAATCA; chemistry not given here)
result-value: 1.6
//
substance: Hs_CHD8_1 (sense CAGGAGGTTATTGGAGACCAA; chemistry not given here)
result-value: 1.61

====

Test system: CHIKV
Type: cell-based, chikungunya virus

substance: Hs_SIMP_1 (sense CAGGGAGACATTAGATCACAA; chemistry not given here) [reference compound]
Score_si4: -0.7
--
substance: s20833 (sense GAATATGACTCTGCAAAGA; chemistry not given here)
Score_si4: 0.65
--
substance: s12470 (sense GGATGTGGACAACAAAGTA; chemistry not given here)
Score_si4: 1.56
--
substance: s195299 (sense ACACATATGTGATCAAGCT; chemistry not given here)
Score_si4: 0.72
--
substance: s5295 (sense CGAGGTCATTGTGCATGAA; chemistry not given here)
Score_si4: 0.77
--
substance: s35330 (CGGTGACTATGAAAGAAAT; chemistry not given here)
Score_si4: 0.15
--
substance: Hs_PRPF4B_2 (sense CACCCTTAAATCGTTATTAAT; chemistry not given here)
Score_si4: 0.63
--
substance: Hs_PSD3_2 (sense ACCAAACGTGTTTAAACTTAA; chemistry not given here) [reference compound]
Score_si4: -0.52

====

Tested on: CHIKV
Type: cell-based, chikungunya virus
Grouping rule (Score_si3): 1 (below 0.6), 2 (0.6 to below 1), 3 (1 or more)

substance: s31659 (CCTCTGAGGTGATCAATGA; chemistry not given here)
tested-system: CHIKV
classification: 3
//
substance: s9030 (CATCTGGAATTAACTGGAT; chemistry not given here)
tested-system: CHIKV
classification: 3
//
substance: Hs_RARSL_4 (sense CCAGCTTTCCAGAGTGTTGAA; chemistry not given here) [reference compound]
tested-system: CHIKV
classification: 1
//
substance: s17802 (GGAGTTAAACATAGATGTA; chemistry not given here)
tested-system: CHIKV
classification: 3
//
substance: Hs_RAB3D_5 (sense TCCGTGGTGCCTTCTAGCTTA; chemistry not given here)
tested-system: CHIKV
classification: 2
//
substance: s25485 (sense ACTTCCTGTTGGTCTACAA; chemistry not given here)
tested-system: CHIKV
classification: 3
//
substance: Hs_RAD51L3_2 (sense CTCACTCTCTGTAAGCATATA; chemistry not given here)
tested-system: CHIKV
classification: 2
//
substance: Hs_NRCAM_1 (CAGGCCTTCAGTACAAAGTTA; chemistry not given here)
tested-system: CHIKV
classification: 2
//
substance: Hs_ZA20D1_2 (CAGGATGACATCGTTCAAGAA; chemistry not given here)
tested-system: CHIKV
classification: 3
//
substance: s35017 (AAGACAGGCTGATCAACTA; chemistry not given here)
tested-system: CHIKV
classification: 2
//
substance: s1698 (CGAACTACACCTTCAGCTA; chemistry not given here) [reference compound]
tested-system: CHIKV
classification: 1
//
substance: Hs_P4HB_2 (CTATTTCACAATCGAATTGAA; chemistry not given here)
tested-system: CHIKV
classification: 3
//
substance: Hs_GSTP1_5 (sense CCTCATCTACACCAACTATGA; chemistry not given here)
tested-system: CHIKV
classification: 1
//
substance: s15562 (sense GCTTAGAAATGGACGACGA; chemistry not given here) [reference compound]
tested-system: CHIKV
classification: 1
//
substance: s6672 (sense GACTAATGAACTACTAAAA; chemistry not given here)
tested-system: CHIKV
classification: 1
//
substance: s20509 (sense GGACGGCCCAAATCCAAAA; chemistry not given here) [reference compound]
tested-system: CHIKV
classification: 1
//
substance: s37918 (GAAGAGCACAAGAACCAGA; chemistry not given here)
tested-system: CHIKV
classification: 2
//
substance: Hs_LOC407835_6 (sense CTGCTGGACTATATTGTGAAA; chemistry not given here)
tested-system: CHIKV
classification: 2
//
substance: Hs_SDFR1_9 (sense CTGGTACATAAAGATGAGTAA; chemistry not given here) [reference compound]
tested-system: CHIKV
classification: 1
//
substance: s50141 (sense AGATACCTTTATGAATATA; chemistry not given here) [reference compound]
tested-system: CHIKV
classification: 1
//
substance: s20649 (sense GAATTACGGAGTCAACAAA; chemistry not given here) [reference compound]
tested-system: CHIKV
classification: 1
//
substance: s30117 (GGTCTTTGGTGGTGTACAA; chemistry not given here)
tested-system: CHIKV
classification: 2
//
substance: Hs_SYMPK_1 (sense CAGGAGCTGATCATCAACAAA; chemistry not given here)
tested-system: CHIKV
classification: 3
//
substance: Hs_ATP6AP2_5 (CAAGTGCTACATGATATTTCA; chemistry not given here)
tested-system: CHIKV
classification: 2
//
substance: Hs_C14orf160_1 (AAAGATTTGAATTATAAATAA; chemistry not given here) [reference compound]
tested-system: CHIKV
classification: 1
//
substance: Hs_XRN1_1 (CAGGTCGTAAATATCAAATAA; chemistry not given here)
tested-system: CHIKV
classification: 3
//
substance: Hs_CNOT3_2 (sense ACGGCTGAGGGACCAAATCAA; chemistry not given here)
tested-system: CHIKV
classification: 3
//
substance: s18906 (sense GAAGGAATTTCATTTGACA; chemistry not given here)
tested-system: CHIKV
classification: 3
//
substance: Hs_GFRA4_4 (sense CAGGAGGCATCTTGGTTGTAA; chemistry not given here)
tested-system: CHIKV
classification: 3
//
substance: s38295 (GCAATTCTGACGACAATAT; chemistry not given here)
tested-system: CHIKV
classification: 3
//
substance: s17018 (GGAAATAGGTCTAGTACTA; chemistry not given here)
tested-system: CHIKV
classification: 3

meta.source: paper PMC4865845
